biological target: furin, P09958; assay: furin cleavage Z-score vs untreated control; higher = more cleavage, active = 3.5 or more, inactive = 1 or less, 8 variable residues between constant flanks; conditions: 7.5 min;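 note: purified furin at 1:10 enzyme:substrate in 50 mM HEPES pH 7.5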
Sequence (P09958 whole entry): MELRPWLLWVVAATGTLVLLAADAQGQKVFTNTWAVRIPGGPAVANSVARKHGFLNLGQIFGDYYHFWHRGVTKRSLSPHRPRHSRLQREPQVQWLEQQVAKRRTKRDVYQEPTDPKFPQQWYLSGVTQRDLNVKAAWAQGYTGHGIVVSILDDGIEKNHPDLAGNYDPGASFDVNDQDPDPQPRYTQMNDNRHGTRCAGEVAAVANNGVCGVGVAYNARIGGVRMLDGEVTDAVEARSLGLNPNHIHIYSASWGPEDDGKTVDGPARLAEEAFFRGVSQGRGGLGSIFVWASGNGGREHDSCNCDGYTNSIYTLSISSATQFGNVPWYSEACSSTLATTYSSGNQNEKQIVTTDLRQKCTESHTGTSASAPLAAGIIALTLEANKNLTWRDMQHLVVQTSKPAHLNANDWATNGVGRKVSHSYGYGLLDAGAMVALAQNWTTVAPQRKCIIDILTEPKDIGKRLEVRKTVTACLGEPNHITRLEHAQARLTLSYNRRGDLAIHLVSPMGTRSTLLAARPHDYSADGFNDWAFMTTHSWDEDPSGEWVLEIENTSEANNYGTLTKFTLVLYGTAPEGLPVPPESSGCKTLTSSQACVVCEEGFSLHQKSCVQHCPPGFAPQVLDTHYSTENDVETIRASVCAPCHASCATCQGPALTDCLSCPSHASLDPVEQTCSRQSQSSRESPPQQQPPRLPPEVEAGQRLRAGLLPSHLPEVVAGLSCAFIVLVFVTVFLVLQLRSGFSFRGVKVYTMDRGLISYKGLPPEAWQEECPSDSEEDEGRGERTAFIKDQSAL
The other results are listed elsewhere or left out. The hit rate among all sequences tested is not known here.
Param threshold (0.5) applies to furin cleavage Z-score; output criterion met when value >= threshold, criterion not met when value < threshold.

Q: Item CARPSRPWRDAGNASASA [FS-1479] with furin cleavage Z-score of 0.5 or above?
Ans: criterion not met

Q: Item CARVSRSVRKAGNASASA [FS-293] with furin cleavage Z-score of 0.5 or above?
Ans: criterion met

Q: Item CAYDSMKKRDAGNASASA [FS-389] with furin cleavage Z-score of 0.5 or above?
Ans: criterion not met
